assayed-system: γ-secretase carrying WT presenilin 1 (Homo sapiens)
Construct: CHAPSO-solubilised microsomal membranes
run-description: Inhibition of total AICD production, CHAPSO enriched γ-secretase membranes, WT presenilin 1
recorded-conditions: total AICD production, western blot, best fit ± standard error, eqn. 3
experimental-readout: pIC50
Remember, pIC50 is on a log scale: it is -log10 of the molar concentration.

| compound | assayed-system | pIC50 |
| --- | --- | --- |
| CC(C)C[C@H](NC(=O)[C@H](Cc1ccccc1)C[C@@H](O)[C@H](Cc1ccccc1)NC(=O)OC(C)(C)C)C(=O)N[C@@H](Cc1ccccc1)C(N)=O [L-685,458] | γ-secretase carrying WT presenilin 1 (Homo sapiens) | 7.49 |

Turning to the following compound.
Request: Provide γ-secretase carrying WT presenilin 1 (Homo sapiens) pIC50 reading for C[C@H](NC(=O)Cc1cc(F)cc(F)c1)C(=O)N[C@H](C(=O)OC(C)(C)C)c1ccccc1 [DAPT] .
Result: 6.41

###

assayed-system: γ-secretase carrying presenilin 1 FAD mutation ΔE9
run-description: Inhibition of total AICD production, CHAPSO enriched γ-secretase membranes, FAD mutant ΔE9
recorded-conditions: ΔE9 presenilin 1; total AICD production, western blot; best fit ± standard error, eqn. 3
Below, each of the compounds is paired with its reported pIC50 value.
The read-out pIC50 is expressed as -log10 of concentration in moles per litre.

| cpd-smiles | numeric-result |
| --- | --- |
| CC(C)C[C@H](NC(=O)[C@H](Cc1ccccc1)C[C@@H](O)[C@H](Cc1ccccc1)NC(=O)OC(C)(C)C)C(=O)N[C@@H](Cc1ccccc1)C(N)=O | 6.15 |

# ---- query compound ----
Request: Give a short answer stating reported pIC50 for "C[C@H](NC(=O)Cc1cc(F)cc(F)c1)C(=O)N[C@H](C(=O)OC(C)(C)C)c1ccccc1" .
Result: 6.13

###

assayed-system: γ-secretase carrying presenilin 1 FAD mutation G384A (Homo sapiens, UniProt P49768, G384A)
Construct: CHAPSO-solubilised microsomal membranes
run-description: Inhibition of total AICD production, CHAPSO enriched γ-secretase membranes, FAD mutant G384A
recorded-conditions: G384A presenilin 1; total AICD production, western blot; best fit ± standard error, eqn. 3
experimental-readout: pIC50
Give only the number. pIC50 is defined as minus log10 of concentration in molar units.

Request: Dear colleague, please send me the reported pIC50 for "CC(C)C[C@H](NC(=O)[C@H](Cc1ccccc1)C[C@@H](O)[C@H](Cc1ccccc1)NC(=O)OC(C)(C)C)C(=O)N[C@@H](Cc1ccccc1)C(N)=O" when you can.
Result: 6.40

// data source = paper PMC3316526
